# target_entity: Bacillus anthracis sortase enzyme (BaSrtA) (Bacillus anthracis, UniProt P0DPQ5)
# Sequence (P0DPQ5 57-210 limits assumed): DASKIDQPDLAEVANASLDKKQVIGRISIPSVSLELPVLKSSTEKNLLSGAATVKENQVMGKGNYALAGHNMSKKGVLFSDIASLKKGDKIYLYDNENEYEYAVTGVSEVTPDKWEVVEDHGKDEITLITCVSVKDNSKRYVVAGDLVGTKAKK

{"smi": "CC1=NN(c2ccccc2)C(=S)/C1=C/Nc1c(Br)cc(Br)cc1Br", "IC50 / nM": 1700}
